Kindly state TGI for each of the entries shown.
system: HOP-62 NSCLC; experiment: NCI tumour cell line growth inhibition, 48 h

A selection of reference data follows.
smiles.code: Cc1nc(NC(=O)N2CCC[C@H]2C(N)=O)sc1-c1ccnc(C(C)(C)C(F)(F)F)c1
target.system: HOP-62 NSCLC
measurement: > 75.1 µM
--
smiles.code: COc1ccc(/C=C(\C#N)c2cc3ccccc3n2C)cc1
target.system: HOP-62 NSCLC
measurement: > 100 µM
--
smiles.code: O=C(/C=C/c1ccco1)Nc1ncc(Cc2ccc(F)cc2)s1
target.system: HOP-62 NSCLC
measurement: > 100 µM
--
smiles.code: C/C(=N\Nc1ccc([N+](=O)[O-])cc1)C(=O)N(C)Nc1ccccc1
target.system: HOP-62 NSCLC
measurement: > 100 µM
--
smiles.code: CCOC(=O)c1nc2cc(C(F)(F)F)ccc2nc1Nc1ccc(Cl)c(Cl)c1
target.system: HOP-62 NSCLC
measurement: > 100 µM

Let us move to another entry and its TGI.
# input Please indicate TGI recorded for N#Cc1c(NC(=S)NCc2ccccc2)sc2c1CCN(N1CCc3c(sc(NC(=S)NCc4ccccc4)c3C#N)C1)C2
# output > 100 µM

These measurements were taken from PubChem BioAssay (NCI).
